- experimental target: AgHse1
- protocol: SPOT peptide array binding signal intensity (averaged, normalized) (arbitrary units (background-subtracted, floor 0; scale differs between SH3 domains)); higher = stronger binding of the SH3 domain to the peptide
Would you mind telling me the reported SPOT peptide array binding signal intensity of each entry?

For the binder KTRLRPAFIQQLWSS , what SPOT peptide array binding signal intensity is on record? 630

For the binder RRRIAYPFYPFKKLG , what SPOT peptide array binding signal intensity is on record? 914

For the binder LLGRKRPVMERVVDI , what SPOT peptide array binding signal intensity is on record? 586

For the binder KWVRRPKLMTPLTFS , what SPOT peptide array binding signal intensity is on record? 818

For the binder PPPPPPPPPPPLPQS , what SPOT peptide array binding signal intensity is on record? ≤ 0

For the binder GATNNAPTLPKRKNP , what SPOT peptide array binding signal intensity is on record? ≤ 0

For the binder NNQRRKPLLLNIGDH , what SPOT peptide array binding signal intensity is on record? 1660
